B1: Ribonuclease HI, P0A7Y4 (parent)
chain: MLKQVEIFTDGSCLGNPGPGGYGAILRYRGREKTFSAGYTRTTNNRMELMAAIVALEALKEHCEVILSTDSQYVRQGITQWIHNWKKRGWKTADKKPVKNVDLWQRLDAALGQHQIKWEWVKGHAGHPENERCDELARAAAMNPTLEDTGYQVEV

Variants of: B1
EXPERIMENTAL CONTEXT: Escherichia coli (strain K12); pH 5.5; Thermal; CD; Sodium acetate 20 mM; NaCl 0.1 M; reversible: yes; structure 2RN2; whole UniProt chain shown
Items are presented alongside their recorded Tm.
Answer with the number, then the unit.

Ask: Item under review: A24V . Reported Tm?
Reply: 55.9 °C

Ask: Item under review: Q76L . Reported Tm?
Reply: 53.8 °C

Ask: Item under review: H62R . Reported Tm?
Reply: 54 °C

***
Ask: Item under review: R41C . Reported Tm?
Reply: 54.3 °C

Ask: Item under review: E119V R41C . Reported Tm?
Reply: 56.9 °C

Ask: Item under review: E135K . Reported Tm?
Reply: 51.9 °C

Ask: Item under review: E119V . Reported Tm?
Reply: 55.4 °C

Ask: Item under review: G23A . Reported Tm?
Reply: 54.5 °C

Ask: Item under review: Q80L K117R . Reported Tm?
Reply: 53.5 °C

Ask: Item under review: H62P T40A K122R . Reported Tm?
Reply: 55.8 °C

Ask: Item under review: E119V K60R . Reported Tm?
Reply: 55 °C

Ask: Item under review: A52V . Reported Tm?
Reply: 60.5 °C

Ask: Item under review: Q80L . Reported Tm?
Reply: 53.5 °C

Ask: Item under review: H62P . Reported Tm?
Reply: 56.8 °C

Ask: Item under review: H62D . Reported Tm?
Reply: 52.1 °C
